assay system: D(1B) dopamine receptor (Homo sapiens, UniProt P21918)
Sequence (P21918 whole entry): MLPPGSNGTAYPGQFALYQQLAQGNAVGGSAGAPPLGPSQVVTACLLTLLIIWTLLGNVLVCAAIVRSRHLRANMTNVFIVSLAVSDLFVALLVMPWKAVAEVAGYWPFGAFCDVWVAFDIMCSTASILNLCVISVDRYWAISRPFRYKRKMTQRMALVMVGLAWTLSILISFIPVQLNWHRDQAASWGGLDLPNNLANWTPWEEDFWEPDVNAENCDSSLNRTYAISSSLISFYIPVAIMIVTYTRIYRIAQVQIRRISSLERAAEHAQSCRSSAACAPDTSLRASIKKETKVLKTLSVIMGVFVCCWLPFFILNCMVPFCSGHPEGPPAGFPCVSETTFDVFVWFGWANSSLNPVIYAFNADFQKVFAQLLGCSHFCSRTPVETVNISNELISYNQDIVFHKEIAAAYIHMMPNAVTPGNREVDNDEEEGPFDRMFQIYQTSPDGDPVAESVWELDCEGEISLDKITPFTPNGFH
method summary: Displacement of [3H]SCH 23390 from human D5 dopamine receptor expressed in HEK293 cells
Type: cell-based
readout type: pKi
Conceptually, pKi converts a concentration in mol/L into minus its log10.

// field: pKi; key: CN1CCCc2c([nH]c3ccccc23)Cc2ccccc2CC1 ; value = 7.04

Consider CN1CCCc2ccccc2Cc2[nH]c3ccccc3c2CC1 . Its measured pKi is 9.21

---

assay system: D(2) dopamine receptor (Homo sapiens, UniProt P14416)
Sequence (P14416 whole entry): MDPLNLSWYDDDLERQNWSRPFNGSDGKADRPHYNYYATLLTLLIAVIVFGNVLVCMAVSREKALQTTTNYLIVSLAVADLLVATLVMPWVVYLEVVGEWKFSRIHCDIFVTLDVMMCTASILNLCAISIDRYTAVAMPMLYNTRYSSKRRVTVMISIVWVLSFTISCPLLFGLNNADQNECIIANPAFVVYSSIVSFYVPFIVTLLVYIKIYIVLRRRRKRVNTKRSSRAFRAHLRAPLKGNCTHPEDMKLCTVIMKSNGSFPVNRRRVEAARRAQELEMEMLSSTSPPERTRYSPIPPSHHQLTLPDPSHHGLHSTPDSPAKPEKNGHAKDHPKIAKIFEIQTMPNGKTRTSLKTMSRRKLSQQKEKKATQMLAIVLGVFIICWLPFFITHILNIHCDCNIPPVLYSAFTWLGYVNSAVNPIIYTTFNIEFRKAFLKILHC
method summary: Activity at human D2L dopamine receptor expressed in HEK293 cells by calcium fluorescence assay
Assay type: functional, cell-based
Provide the reported Ki of each item.
Please reply with the bare figure in nM and do not write the unit itself.

Reported Ki for CN1CCCc2c([nH]c3ccccc23)Cc2ccccc2CC1 was 38

Ki recorded for this compound, CN1CCCc2ccccc2Cc2[nH]c3ccccc3c2CC1 , is 1.5
